B1: TPR 5TU (parent)
chain: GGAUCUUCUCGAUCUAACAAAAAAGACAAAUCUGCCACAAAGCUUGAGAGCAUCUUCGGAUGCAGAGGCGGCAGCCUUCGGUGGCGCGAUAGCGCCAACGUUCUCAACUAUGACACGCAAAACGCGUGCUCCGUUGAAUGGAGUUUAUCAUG

Variants of: B1
ASSAY_DETAILS: polymerase ribozyme fitness, log enrichment relative to wild type (log ratio); higher = more active; in vitro selection for triplet polymerase activity
This sample holds only a part of the variants without activity.
Exercise: state measured polymerase ribozyme fitness (log ratio) for each of the variants provided.

Some variants with known polymerase ribozyme fitness (log ratio) results, for comparison:
{"columns": ["VARIANT_NAME", "polymerase ribozyme fitness (log ratio)"],
 "data": [
  ["C10U U56A C93U A122U C149U G152U", "≤ -4.2"],
  ["C27A A47U A106U U145A", "≤ -4.2"],
  ["A20C G42C G50U G84A C99A", "≤ -4.2"],
  ["G34U G83U A115G U145G", "≤ -4.2"]
]}

Provide the reported polymerase ribozyme fitness (log ratio) of each entry below, same order.
1. G94C U134G U135C
2. A12G C35A C95U A106U
3. A17G C27A
4. A16U A23G U148A

≤ -4.2
≤ -4.2
≤ -4.2
≤ -4.2
